Data provenance: paper PMC7170889

Biological target: PKCδ (Homo sapiens)
Sequence (Q05655 whole entry): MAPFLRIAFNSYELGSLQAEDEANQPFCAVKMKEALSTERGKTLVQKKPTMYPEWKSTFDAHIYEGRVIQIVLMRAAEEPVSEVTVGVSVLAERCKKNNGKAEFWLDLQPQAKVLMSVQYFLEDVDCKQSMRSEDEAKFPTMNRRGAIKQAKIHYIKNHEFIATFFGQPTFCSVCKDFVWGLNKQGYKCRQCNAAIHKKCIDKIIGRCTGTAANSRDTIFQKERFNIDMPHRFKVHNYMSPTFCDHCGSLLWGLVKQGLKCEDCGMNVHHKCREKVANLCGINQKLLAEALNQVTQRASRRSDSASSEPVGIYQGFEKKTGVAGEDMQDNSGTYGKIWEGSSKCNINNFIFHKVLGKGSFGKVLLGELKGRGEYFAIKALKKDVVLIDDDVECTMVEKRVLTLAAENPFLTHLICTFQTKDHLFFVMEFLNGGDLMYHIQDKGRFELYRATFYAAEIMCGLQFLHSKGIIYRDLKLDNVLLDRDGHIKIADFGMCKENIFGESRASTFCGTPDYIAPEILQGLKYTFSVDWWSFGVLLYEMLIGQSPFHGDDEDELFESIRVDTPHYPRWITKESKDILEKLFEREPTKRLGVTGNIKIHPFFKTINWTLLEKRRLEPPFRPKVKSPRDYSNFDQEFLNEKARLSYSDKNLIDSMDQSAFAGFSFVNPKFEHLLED
pKi: −log10 of the molar value.
observable: pKi

1) CCC/C=C/C=C/C(=O)O[C@H]1/C(=C/C(=O)OC)C[C@H]2C[C@H]([C@@H](C)O)OC(=O)C[C@H](O)C[C@@H]3C[C@H](OC(C)=O)C(C)(C)[C@](O)(C[C@@H]4C[C@@H](OC(C)=O)C[C@H](/C=C/C(C)(C)[C@]1(O)O2)O4)O3: 8.27
2) CCCC=CC=CC(=O)OC1C(=CC(=O)OC)CC2CC(C(C)O)OC(=O)CC(O)CC3CC(OC(C)=O)C(C)(C)C(O)(CC4CC(OC(=O)Nc5ccccc5)CC(C=CC(C)(C)C1(O)O2)O4)O3 (centres unmarked): 8.33
